Source: patent US4863914A

# EXPERIMENT: Plasma half-life after a single intravenous dose in the mouse
# Assay type: in vivo
# COND: 10 mg/kg, single intravenous dose 10 mg/kg, two compartments open model, read-out: Plasma half-life t1/2 α
# Procedure: | ^(1) Determined after a single intravenous dose (10 mg/kg) in the | mouse; the plasma concentration vs. time data were best described | according to a two compartments open model with the tabulated
MEASUREMENT NAME: half-life (min)
One number for each entry, in min.

Exam item: Which value of half-life has been reported for `C[C@@H](O)[C@H]1C(=O)N2C(C(=O)[O-])=C(c3ccc(C[n+]4ccccc4)cc3)S[C@H]12` in the records?
Marked response: 5

====

# EXPERIMENT: Plasma half-life after a single intravenous dose in the mouse
# Type: in vivo
# COND: 10 mg/kg, single intravenous dose 10 mg/kg, two compartments open model, read-out: Plasma half-life t1/2 β
MEASUREMENT NAME: half-life (min)
Answers are plain numbers, in min.

Exam item: Which value of half-life has been reported for `C[C@@H](O)[C@H]1C(=O)N2C(C(=O)[O-])=C(c3ccc(C[n+]4ccccc4)cc3)S[C@H]12` in the records?
Marked response: 15
